The following compounds each carry a recorded IC50 for CYP2C9 (Homo sapiens).

Reference set (4 entries):
• COc1cncc(Nc2ccc(C(=O)c3c[nH]c4ncnc(NC5CCCCC5)c34)c(F)n2)c1 [Compound P-4104] = > 10 µM
• CC(C)Nc1ncnc2[nH]cc(C(=O)c3ccc(NC4CCCCC4)nc3Cl)c12 [Compound P-4109] = 5 to 10 µM
• CCCCNc1ncnc2[nH]cc(C(=O)c3ccc(Nc4ccc(CC)nc4)nc3F)c12 [Compound P-4100] = < 5 µM
• CCNc1ncnc2[nH]cc(C(=O)c3ccc(Nc4ccc(OC)nc4)nc3F)c12 [Compound P-4081] = > 10 µM

Ask | Fill blank: measured IC50 of the compound CNc1ncnc2[nH]cc(C(=O)c3ccc(Nc4ccc(C)nc4)nc3F)c12 [Compound P-4115] is ____.
Reply | < 5 µM

Ask | Continue with Cc1ccc(Nc2ccc(C(=O)c3c[nH]c4ncnc(NC5CCCCC5)c34)c(F)n2)cn1 [Compound P-4111]
Reply | 5 to 10 µM

Ask | Continue with Fc1nc(NC2CCC(F)(F)CC2)ccc1Cc1c[nH]c2ncnc(NCC(F)(F)F)c12 [Compound P-4128]
Reply | > 10 µM

----------
- measuredTarget: BCR-NTRK1 BaF3 cells (Homo sapiens)
- Construct: fused on or other part: P11274 (Breakpoint cluster region protein)
- Sequence (P04629 510-781): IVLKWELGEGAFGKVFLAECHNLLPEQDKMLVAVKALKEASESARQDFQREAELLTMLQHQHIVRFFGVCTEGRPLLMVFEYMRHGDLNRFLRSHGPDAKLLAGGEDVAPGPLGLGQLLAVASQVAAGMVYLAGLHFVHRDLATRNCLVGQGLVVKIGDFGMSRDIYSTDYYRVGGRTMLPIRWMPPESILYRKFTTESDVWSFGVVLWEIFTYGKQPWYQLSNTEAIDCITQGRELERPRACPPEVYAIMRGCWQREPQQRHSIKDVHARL
- testSummary: BaF3 BCR-NTRK1 cell proliferation assay (ATPlite)
- details: read-out: Inhibition of Cell Proliferation IC50, BCR/BaF3 TrkA
outcomeMeasure: IC50

- COc1ccc(Nc2ccc(C(=O)c3c[nH]c4ncc(C)cc34)c(F)n2)cn1: < 100 nM
- Cc1cnc2[nH]cc(Cc3ccc(Nc4ccc(C)nc4)nc3F)c2c1: < 1000 nM

Please examine the following record next.
Ask | Form field: IC50 recorded for COc1ccc(Nc2ccc(Cc3c[nH]c4ncnc(OC)c34)c(F)n2)cn1 with BCR-NTRK1 BaF3 cells (Homo sapiens) (enter value)
Reply | < 100 nM

----------
- measuredTarget: CYP2D6 (Homo sapiens)
- Sequence (P10635 whole entry): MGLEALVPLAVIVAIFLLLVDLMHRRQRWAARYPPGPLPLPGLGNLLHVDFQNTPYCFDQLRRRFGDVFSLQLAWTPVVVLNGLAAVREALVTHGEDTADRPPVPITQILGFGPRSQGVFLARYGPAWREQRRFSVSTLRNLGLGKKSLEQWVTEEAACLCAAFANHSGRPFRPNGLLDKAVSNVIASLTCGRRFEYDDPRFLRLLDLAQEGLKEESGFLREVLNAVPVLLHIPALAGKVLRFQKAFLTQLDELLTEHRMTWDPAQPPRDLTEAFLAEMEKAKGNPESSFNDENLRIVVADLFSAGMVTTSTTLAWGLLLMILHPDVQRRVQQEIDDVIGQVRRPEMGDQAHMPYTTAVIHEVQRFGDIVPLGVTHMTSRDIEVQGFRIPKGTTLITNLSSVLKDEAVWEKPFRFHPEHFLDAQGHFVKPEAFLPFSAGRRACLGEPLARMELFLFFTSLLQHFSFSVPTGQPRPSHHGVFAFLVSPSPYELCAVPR
pIC50: −log10 of the molar value.
Listed next: entries and their corresponding pIC50.

Ask | Fill blank: measured pIC50 of the compound CCc1ccc(Nc2ccc(C(=O)c3c[nH]c4ncnc(NC5CCC5)c34)c(F)n2)cn1 is ____.
Reply | < 5.00

Ask | Continue with O=C(c1cnc(NC2CCC(F)(F)CC2)c(F)c1)c1c[nH]c2ncnc(NCC(F)(F)F)c12
Reply | < 5.00

Ask | Continue with COc1cncc(Nc2ccc(C(=O)c3c[nH]c4ncnc(NC5CC5)c34)c(F)n2)c1
Reply | > 5.30

Ask | Continue with CNc1ncnc2[nH]cc(C(=O)c3ccc(NC4CCC(F)(F)CC4)nc3)c12
Reply | < 5.00

----------
- measuredTarget: BCR-FMS BaF3 cells (Homo sapiens)
- Construct: fused on or other part: P11274 (Breakpoint cluster region protein)
- Sequence (P07333 582-910): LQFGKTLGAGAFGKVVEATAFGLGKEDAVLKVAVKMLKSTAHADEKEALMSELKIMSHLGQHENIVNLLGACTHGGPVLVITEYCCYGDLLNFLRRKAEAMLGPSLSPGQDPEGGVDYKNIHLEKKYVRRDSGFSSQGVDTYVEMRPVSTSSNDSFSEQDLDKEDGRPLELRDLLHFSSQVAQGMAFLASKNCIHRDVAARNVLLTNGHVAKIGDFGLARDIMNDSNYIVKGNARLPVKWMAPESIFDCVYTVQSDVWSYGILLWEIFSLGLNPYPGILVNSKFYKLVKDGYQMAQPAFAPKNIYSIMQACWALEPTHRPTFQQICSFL
- testSummary: BaF3 BCR-FMS cell proliferation assay (ATPlite)
- details: read-out: Inhibition of Cell Proliferation IC50, BCR/BaF3 Fms
pIC50: −log10 of the molar value.
outcomeMeasure: pIC50

Reference set (8 entries):
* COc1ccc(Nc2ccc(C(=O)c3c[nH]c4ncc(C)cc34)c(F)n2)cn1 | > 7.00
* COc1ccc(Nc2ccc(C(=O)c3c[nH]c4ncnc(NCC(F)(F)F)c34)c(F)n2)cn1 | > 8.00
* COc1ccc(Nc2ccc(C(=O)c3c[nH]c4ncnc(NC(C)C)c34)c(F)n2)cn1 | > 8.00
* Cc1cnc2[nH]cc(Cc3cnc(Nc4cc(OC(C)C)n[nH]4)nc3)c2c1 | > 6.00
* CCOc1ccc(Nc2ncc(Cc3c[nH]c4ncc(C)cc34)cn2)cc1 | > 8.00
* Cc1cnc2[nH]cc(C(=O)c3ccc(Nc4ccc(C5CC5)nc4)nc3F)c2c1 | > 7.00
* CCCCNc1ncnc2[nH]cc(C(=O)c3ccc(Nc4ccc(OC)nc4)nc3F)c12 | > 7.00
* COc1ccc(Nc2ccc(Cc3c[nH]c4ncnc(C)c34)c(F)n2)cn1 | > 7.00

Ask | Fill blank: measured pIC50 of the compound CCn1cc(Nc2ccc(Cc3c[nH]c4ncnc(C)c34)c(F)n2)cn1 is ____.
Reply | > 8.00

Ask | Continue with CCc1ccc(Nc2ccc(C(=O)c3c[nH]c4ncnc(NC5CC5)c34)c(F)n2)cn1
Reply | > 8.00

Ask | Continue with Cc1cnc2[nH]cc(Cc3cnc(Nc4ccc(F)cc4)nc3)c2c1
Reply | > 7.00

Ask | Continue with CCCNc1ncnc2[nH]cc(C(=O)c3ccc(Nc4ccc(OC)nc4)nc3F)c12
Reply | > 8.00

Ask | Continue with CCn1cc(Nc2ccc(Cc3c[nH]c4ncnc(C5CC5)c34)c(F)n2)cn1
Reply | > 7.00

Ask | Continue with COc1ccc(Nc2ccc(Cc3c[nH]c4ncnc(OC)c34)c(F)n2)cn1
Reply | > 8.00

Ask | Continue with Cc1cnc2[nH]cc(Cc3cnc(Nc4ccc(C(O)(C(F)(F)F)C(F)(F)F)cc4)nc3)c2c1
Reply | > 8.00

Ask | Continue with CCOc1ccc(Nc2ccc(Cc3c[nH]c4ncnc(OC)c34)c(F)n2)cn1
Reply | > 8.00

Ask | Continue with CCc1ccc(Nc2ccc(C(=O)c3c[nH]c4ncnc(NCC(F)(F)F)c34)c(F)n2)cn1
Reply | > 7.00

Ask | Continue with Cc1ccc(Nc2ccc(Cc3c[nH]c4ncc(Cl)cc34)c(F)n2)cn1
Reply | > 7.00

Ask | Continue with Cc1cnc2[nH]cc(Cc3cnc(Nc4cc(-c5ccc(F)cc5)n[nH]4)nc3)c2c1
Reply | > 6.00

----------
- measuredTarget: CYP1A2 (Homo sapiens)
- Sequence (P05177 1-516): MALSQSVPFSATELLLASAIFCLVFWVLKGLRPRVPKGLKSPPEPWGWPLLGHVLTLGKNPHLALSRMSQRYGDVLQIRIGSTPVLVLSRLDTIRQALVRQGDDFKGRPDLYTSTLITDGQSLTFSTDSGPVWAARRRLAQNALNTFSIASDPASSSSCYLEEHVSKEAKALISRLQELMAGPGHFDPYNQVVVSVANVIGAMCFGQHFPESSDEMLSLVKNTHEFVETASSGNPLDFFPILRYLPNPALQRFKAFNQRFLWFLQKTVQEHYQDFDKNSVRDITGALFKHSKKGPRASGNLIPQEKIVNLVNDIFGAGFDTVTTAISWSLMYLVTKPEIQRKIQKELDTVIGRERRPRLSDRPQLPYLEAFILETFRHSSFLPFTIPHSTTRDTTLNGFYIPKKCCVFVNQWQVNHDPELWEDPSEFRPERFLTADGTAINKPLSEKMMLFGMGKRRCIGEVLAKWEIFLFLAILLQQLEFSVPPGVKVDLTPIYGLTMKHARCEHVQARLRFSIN
outcomeMeasure: IC50

• CNc1ncnc2[nH]cc(C(=O)c3ccc(NC4CCC(F)(F)CC4)nc3Cl)c12 = > 10 µM
• CCc1ccc(Nc2ccc(C(=O)c3c[nH]c4ncnc(N[C@@H](C)c5ccc(F)cc5)c34)c(F)n2)cn1 = < 5 µM
• O=C(c1ccc(NC2CCC(F)(F)CC2)nc1Cl)c1c[nH]c2ncnc(NCC(F)(F)F)c12 = > 10 µM

Please examine the following record next.
Ask | Fill blank: measured IC50 of the molecule O=C(c1ccc(Nc2ccc(C(F)(F)F)nc2)nc1F)c1c[nH]c2ncnc(NC3CC3)c12 is ____.
Reply | > 10 µM

----------
- measuredTarget: BCR-NTRK2 BaF3 cells (Homo sapiens)
- Construct: fused on or other part: P11274 (Breakpoint cluster region protein)
- Sequence (Q16620 538-807): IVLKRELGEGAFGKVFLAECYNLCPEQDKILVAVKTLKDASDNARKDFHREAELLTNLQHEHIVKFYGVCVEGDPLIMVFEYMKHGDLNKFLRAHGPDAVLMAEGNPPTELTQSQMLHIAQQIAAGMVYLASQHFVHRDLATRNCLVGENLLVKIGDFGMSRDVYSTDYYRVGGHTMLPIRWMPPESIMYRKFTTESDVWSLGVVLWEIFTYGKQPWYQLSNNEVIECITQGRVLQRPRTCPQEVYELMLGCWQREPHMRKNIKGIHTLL
- testSummary: BaF3 BCR-NTRK2 cell proliferation assay (ATPlite)
- details: read-out: Inhibition of Cell Proliferation IC50, BCR/BaF3 TrkB
outcomeMeasure: IC50

Reference set (5 entries):
• CNc1ncnc2[nH]cc(C(=O)c3cnc(NC4CCC(F)(F)CC4)c(F)c3)c12 [Compound P-4054] = < 1000 nM
• CCc1ccc(Nc2ccc(C(=O)c3c[nH]c4ncnc(NCC5CC5)c34)c(F)n2)cn1 [Compound P-4118] = < 10 nM
• CC(C)(O)CNc1ncnc2[nH]cc(C(=O)c3ccc(Nc4ccc(C5CC5)nc4)nc3F)c12 [Compound P-4049] = < 1000 nM
• COc1ccc(Nc2ccc(C(=O)c3c[nH]c4ncnc(NCC5CCCO5)c34)c(F)n2)cn1 (centres unmarked) [Compound P-4073] = < 10 nM
• COc1ccc(Nc2ncc(Cc3c[nH]c4ncc(C)cc34)cn2)cc1F [Compound P-3023] = < 1000 nM

Ask | Fill blank: measured IC50 of the molecule Cc1cncc(Nc2ccc(C(=O)c3c[nH]c4ncnc(C5CC5)c34)c(F)n2)c1 [Compound P-4039] is ____.
Reply | < 100 nM

Ask | Continue with Cc1ccc(Nc2ccc(C(=O)c3c[nH]c4ncc(Cl)cc34)c(F)n2)cn1 [Compound P-3044]
Reply | < 100 nM

Ask | Continue with CCCOc1ccc(Nc2ncc(Cc3c[nH]c4ncc(C)cc34)cn2)cc1 [Compound P-3024]
Reply | < 1000 nM
